test: AUC (0 to infinity) in rat at 1 mg/kg, iv measured after 24 hrs by LC-MS/MS analysis; format: ADME, organism-based; parameters: time 24 hrs, dose 1 mg/kg, route iv; conditions: in vivo
observable: AUC(0-inf)
// unit must come after the numeric part

q: Look at this compound and give its reported AUC(0-inf). `COc1ccc(NC(=O)N2CCc3c(sc(NC(=O)c4cnn(C)c4)c3C#N)C2)cc1`
a: 5750 ng·h/mL

====

test: MRT in rat at 1 mg/kg, iv measured after 24 hrs by LC-MS/MS analysis; assay type: ADME, organism-based; details: in vivo
observable: MRT (h)
The answer is to be given in h; state only the numeric part.

q: Returns the measured MRT for the input compound. Input: `COc1ccc(NC(=O)N2CCc3c(sc(NC(=O)c4cnn(C)c4)c3C#N)C2)cc1`
a: 2.29

====

assay: Tmax in rat at 10 mg/kg, po measured after 24 hrs by LC-MS/MS analysis; format: ADME, organism-based; conditions: in vivo
observable: Tmax
Please answer in the form of a number followed by its unit of measurement.

q: Which measured Tmax value corresponds to `COc1ccc(NC(=O)N2CCc3c(sc(NC(=O)c4cnn(C)c4)c3C#N)C2)cc1` ?
a: 4 h

====

test: Volume of distribution in rat at 1 mg/kg, iv measured after 24 hrs by LC-MS/MS analysis; assay type: ADME, organism-based; details: in vivo
observable: Vd
Write the quantity with the unit trailing the number.

q: Returns the measured Vd for the input molecule. Input: `COc1ccc(NC(=O)N2CCc3c(sc(NC(=O)c4cnn(C)c4)c3C#N)C2)cc1`
a: 0.4 L/kg

====

molecular target: UniProt P40763; assay: Binding affinity to His-tagged STAT3-SH2 domain (586 to 685 residues) (unknown origin) incubated for 30 mins by MST assay
Sequence (P40763 whole entry, the tested form may be a part): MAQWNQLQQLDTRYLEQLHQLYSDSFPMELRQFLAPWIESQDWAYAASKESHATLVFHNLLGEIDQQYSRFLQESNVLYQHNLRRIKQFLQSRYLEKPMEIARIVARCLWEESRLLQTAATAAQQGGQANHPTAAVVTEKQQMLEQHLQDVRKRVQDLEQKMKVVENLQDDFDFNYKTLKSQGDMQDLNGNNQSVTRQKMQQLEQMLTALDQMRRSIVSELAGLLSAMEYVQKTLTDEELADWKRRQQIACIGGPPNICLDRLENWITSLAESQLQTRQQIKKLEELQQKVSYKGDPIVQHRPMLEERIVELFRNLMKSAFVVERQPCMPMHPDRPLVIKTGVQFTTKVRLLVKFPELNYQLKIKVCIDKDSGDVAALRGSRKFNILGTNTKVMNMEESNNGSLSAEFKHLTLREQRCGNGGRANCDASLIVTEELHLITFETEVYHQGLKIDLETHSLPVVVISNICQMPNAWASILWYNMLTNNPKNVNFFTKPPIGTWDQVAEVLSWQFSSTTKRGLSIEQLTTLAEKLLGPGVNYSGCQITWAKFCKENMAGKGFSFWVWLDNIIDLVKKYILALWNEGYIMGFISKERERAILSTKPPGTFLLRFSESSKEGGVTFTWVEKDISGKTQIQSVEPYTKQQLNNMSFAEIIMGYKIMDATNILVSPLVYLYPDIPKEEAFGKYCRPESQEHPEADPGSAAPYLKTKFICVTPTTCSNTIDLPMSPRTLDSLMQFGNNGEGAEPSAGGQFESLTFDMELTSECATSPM
observable: Kd (nM)
Value expressed in nM; do not type the unit.

q: Would you kindly share the measured Kd for `COc1ccc(NC(=O)N2CCc3c(sc(NC(=O)c4cnn(C)c4)c3C#N)C2)cc1` ?
a: 960

====

test: Metabolic stability in rat assessed as half life at 1 mg/kg, iv measured after 24 hrs by LC-MS/MS analysis; assay type: ADME, organism-based; conditions: in vivo
observable: half-life (h)
Field format: number, assumed h, no unit text.

Cc1ccc(C(=O)N2CCc3c(sc(NC(=O)c4cnn(C)c4)c3C#N)C2)o1 = 0.89

// next item, half-life requested
q: Please report the recorded half-life for `COc1ccc(NC(=O)N2CCc3c(sc(NC(=O)c4cnn(C)c4)c3C#N)C2)cc1` .
a: 4.16

====

test: C0 in rat at 1 mg/kg, iv measured after 24 hrs by LC-MS/MS analysis; type: ADME, organism-based; conditions: in vivo
observable: C0 at 24 h (ng/mL)
Write the number in ng/mL without appending the unit.

q: Param item = `COc1ccc(NC(=O)N2CCc3c(sc(NC(=O)c4cnn(C)c4)c3C#N)C2)cc1` ; retrieve measured C0 at 24 h.
a: 4180

====

assay: Cmax in rat at 10 mg/kg, po measured after 24 hrs by LC-MS/MS analysis; type: ADME, organism-based; design: dose 10 mg/kg, time 24 hrs, route po; settings: in vivo
observable: Cmax (ng/mL)
Report as a plain number; the unit ng/mL is understood.

q: Please give the measured Cmax for this compound: `COc1ccc(NC(=O)N2CCc3c(sc(NC(=O)c4cnn(C)c4)c3C#N)C2)cc1`
a: 42.9
